The reported measurements were obtained from patent US20190309074A1.

assay: aggregation and purification amounts of deglycosylated antibodies, before and after φ; type: physicochemical; conditions: based on 100 ml culture

[
  {
    "MOLECULE": "deglyco C1 IgG: deglycosylated clone 1 IgG; light chain CDR1 TGSSSNIGRCGVT (SEQ ID NO: 2), N32R/N33C/S34G (antibody, V domains shown) VH: EVQLVESGGGLVQPGGSLRLSCAVSGFTFSGYDMSWIRQAPGKGLEWVAGIYPDGGNTYYADSVKGRFTISRDDSKNTFYLQMNSLRAEDTAVYYCARGATWWVLGPFDYWGQGTLVTVSS VL: DIQLTQSPSSLSASVGDRVTITCTGSSSNIGRCGVTWYQQKPGKAPKLLIYADSHRPSGVPSRFSGSGSGTDFTLTISSLQPEDFATYYCGAWDDSLSGYVFGQGTKVEIKR",
    "Final um, Before φ": "4.859 mg"
  }
]
